These measurements were taken from patent US20150253330A1.

System: SNU-1
Experiment: 72 hr viability by Syto60, gastric cell line
Type: cell-based
Details: Homo sapiens, SNU1, Syto60 (lower), read-out: ganetespib IC50
property-label: IC50 (nM)
Please give a number only; it is taken to be in nM.

Request: Need IC50, item `CC(C)c1cc(-c2nnc(O)n2-c2ccc3c(ccn3C)c2)c(O)cc1O`
Result: 6

###

System: AGS
Test: 72 hr viability by Syto60, gastric cell line
Assay type: cell-based
Settings: Homo sapiens, Syto60 (lower), read-out: ganetespib IC50
property-label: IC50 (nM)
Please give a number only; it is taken to be in nM.

Request: Need IC50, item CC(C)c1cc(-c2nnc(O)n2-c2ccc3c(ccn3C)c2)c(O)cc1O [ganetespib]
Result: 5
